- EXPERIMENTAL_DETAILS: Biodistribution of ^131 I-3 in CD-1 Mice, normal and blocked with lisinopril
- Assay type: in vivo
- SETTINGS: mouse, contents, iv, 1 uCi, 1.5 hours, normal (not blocked); read-out: Biodistribution, Contents
ENDPOINT_NAME: tissue uptake at 1.5 h (%ID/g)
// units = %ID/g; emit number, no label

[in] Which tissue uptake at 1.5 h is listed for O=C(NCCCC[C@H](N[C@@H](CCc1ccccc1)C(=O)O)C(=O)N1CCC[C@H]1C(=O)O)c1cccc([131I])c1 [^131 I-3, Lisinopril N^ε -radioiodobezamide] ?
[out] 22.1
